# assayedSystem: Ephrin type-A receptor 1 (Homo sapiens) (UniProt P21709)
# Sequence (whole entry): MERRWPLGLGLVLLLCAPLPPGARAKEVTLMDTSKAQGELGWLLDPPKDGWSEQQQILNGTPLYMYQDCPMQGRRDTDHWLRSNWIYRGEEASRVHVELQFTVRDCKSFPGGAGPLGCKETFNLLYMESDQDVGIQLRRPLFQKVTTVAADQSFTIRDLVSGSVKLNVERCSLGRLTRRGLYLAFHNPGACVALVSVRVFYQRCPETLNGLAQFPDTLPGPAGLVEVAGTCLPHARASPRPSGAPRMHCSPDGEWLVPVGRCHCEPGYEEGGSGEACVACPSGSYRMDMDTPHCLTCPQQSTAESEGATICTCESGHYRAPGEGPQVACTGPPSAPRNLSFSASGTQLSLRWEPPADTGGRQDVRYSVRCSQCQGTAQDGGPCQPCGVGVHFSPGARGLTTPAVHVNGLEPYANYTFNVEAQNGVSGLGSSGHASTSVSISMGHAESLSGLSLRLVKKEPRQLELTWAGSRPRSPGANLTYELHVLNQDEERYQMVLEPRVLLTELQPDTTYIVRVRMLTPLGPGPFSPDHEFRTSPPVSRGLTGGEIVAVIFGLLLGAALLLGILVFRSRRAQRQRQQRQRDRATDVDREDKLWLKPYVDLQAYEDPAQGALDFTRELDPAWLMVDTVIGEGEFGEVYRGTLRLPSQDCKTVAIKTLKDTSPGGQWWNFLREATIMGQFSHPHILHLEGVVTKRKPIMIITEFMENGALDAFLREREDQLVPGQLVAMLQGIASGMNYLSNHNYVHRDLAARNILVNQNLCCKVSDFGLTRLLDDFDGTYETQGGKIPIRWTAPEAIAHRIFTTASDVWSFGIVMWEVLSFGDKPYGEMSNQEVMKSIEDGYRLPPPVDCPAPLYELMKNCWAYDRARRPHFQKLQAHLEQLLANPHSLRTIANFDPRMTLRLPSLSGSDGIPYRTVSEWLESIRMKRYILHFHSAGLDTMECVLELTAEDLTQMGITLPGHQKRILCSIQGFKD
# conditions: at 1 µM
measurementName: residual activity (%)
Write down the numeric answer in % and omit the unit.

The cases that follow already have their residual activity on record.
> print(dat)
                                   compound  readoutunit  testvalue
1  CCN(CC)CCNC(=O)c1c(C)[nH]c(/C=C2\C(=O)Nc3ccc(Cl)cc32)c1C            %         82
2  COc1cc2nccc(Oc3ccc(NC(=O)Nc4cc(C)on4)c(Cl)c3)c2cc1OC            %         10

**Q:** Reported residual activity, compound COc1cc2ncnc(Nc3cccc(Cl)c3)c2cc1OC : ____
**A:** 42

**Q:** Reported residual activity, compound CCOC(=O)c1c(C)[nH]c(/C=C2\C(=O)Nc3ccccc32)c1C : ____
**A:** 83

**Q:** Reported residual activity, compound CSc1nc(-c2ccc(F)cc2)c(-c2ccnc(NC(C)c3ccccc3)c2)[nH]1 (centres undefined) : ____
**A:** 101

**Q:** Reported residual activity, compound Nc1n[nH]c2nc3ccccc3nc12 : ____
**A:** 87

**Q:** Reported residual activity, compound O=C1NC(=O)c2c1c1c3ccccc3[nH]c1n1cncc21 : ____
**A:** 74

**Q:** Reported residual activity, compound CC(C)c1nn(-c2c(Cl)cccc2Cl)c2nc(Cc3ccc(OCCO)cc3)[nH]c(=O)c12 : ____
**A:** 105

**Q:** Reported residual activity, compound CC(C)[C@H](CO)Nc1nc(Nc2cc(N)cc(Cl)c2)c2ncn(C(C)C)c2n1 : ____
**A:** 95

**Q:** Reported residual activity, compound CN(C)S(=O)(=O)c1ccc2c(c1)/C(=C/c1cc3c([nH]1)CCCC3)C(=O)N2 : ____
**A:** 96

**Q:** Reported residual activity, compound O=C1NC(=O)C(c2c[nH]c3ccccc23)=C1c1c[nH]c2ccccc12 : ____
**A:** 77

**Q:** Reported residual activity, compound O=c1cc(N2CCNCC2)oc2c(-c3ccccc3)cccc12 : ____
**A:** 91

**Q:** Reported residual activity, compound NC(=O)Nc1sc(-c2ccc(F)cc2)cc1C(N)=O : ____
**A:** 9

**Q:** Reported residual activity, compound O=C(c1cc2cc(O)ccc2[nH]1)c1cc2cc(O)ccc2[nH]1 : ____
**A:** 83
